- target_entity: human KSP motor domain (Homo sapiens)
- Sequence (P52732 18-359 limits assumed): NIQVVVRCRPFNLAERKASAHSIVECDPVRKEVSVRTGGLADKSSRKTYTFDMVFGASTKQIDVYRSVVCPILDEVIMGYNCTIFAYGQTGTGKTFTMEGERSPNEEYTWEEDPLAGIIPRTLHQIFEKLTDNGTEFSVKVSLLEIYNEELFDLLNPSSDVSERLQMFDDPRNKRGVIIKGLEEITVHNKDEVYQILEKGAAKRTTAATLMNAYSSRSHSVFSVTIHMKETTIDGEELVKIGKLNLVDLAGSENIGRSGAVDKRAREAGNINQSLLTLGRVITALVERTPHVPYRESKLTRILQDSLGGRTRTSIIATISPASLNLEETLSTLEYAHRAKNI
value_kind: IC50

Task: Look up IC50 of Cc1ccc(-n2c(-c3ccccc3Br)nc3sccc3c2=O)cc1 [1-4] and report it.
Output: ≤ 50 µM

Recorded values, source patent US20070149553A1.
